Provide the recorded pIC50 for the entries that follow.
target: HLA-B*07:02; assay: IEDB peptide-MHC binding, purified MHC/competitive/radioactivity; bounds were set here for any values at or beyond the usual limits of such assays; conditions: source organism: Bordetella pertussis
Numbers only, as −log10 of the molar value.

GAPAAVSVL = 4.16

Now for another entry.
So what does the record say about pIC50 for "HVRGMLVPV" ?
5.21

----------
Task for the reader: assign each of the following sequences its reported IC50.
target: HLA-B*57:01; test: IEDB peptide-MHC binding, purified MHC/competitive/radioactivity; bounds were set here for any values at or beyond the usual limits of such assays; settings: source organism: Bordetella pertussis

RGWSIFALY = 1.05 µM
DASGQHRLW = ≥ 70.4 µM
KGPKLAMPW = 4.87 µM

Lab note: next sequence to report on.
Find IC50 (HLA-B*57:01) for the entry "VSVKVAKKL"
37.4 µM
